Source listed as ChEMBL document CHEMBL3988442.

Tested on: Mycobacterium tuberculosis
Run description: Cornell - Phenotypic assay to identify agents that inhibit growth of Mycobacterium tuberculosis
Type: functional
Set-up: scale not given: direction of the effect not stated beside the values
Assay context: 10 mM as filed; unlikely as a test dose
Among all 53,000 compounds or so, about 900 (1.7%) showed an effect of 50% or more. The entries come from a sample that favours strong results as a whole.
Please note: class 1 applies when Percent Effect is 40% or greater, and class 0 applies otherwise.

| Compound | Qualitative label |
| --- | --- |
| CCC(=O)N1CCC(c2nc(N3CCCCC3)ncc2S(C)(=O)=O)CC1 | class 1 |
| N#CCCN(CCC#N)C(=O)CN1CCCC1Cc1cccc(F)c1 (stereo not given) | class 0 |
| O=C(c1cc(COc2ccc3c(c2)OCO3)[nH]n1)N1CCCC1 | class 1 |
| COc1ccc(CN2CC[C@@H]3[C@H]2CCC(=O)N3c2cnn(C)c2)cc1.O=C(O)C(F)(F)F | class 0 |
| O=C(c1cc(COc2ccc3c(c2)OCO3)[nH]n1)N1CCCO1 | class 1 |
| CS(=O)(=O)CCn1ccc(NC(=O)Cc2c[nH]c3ccccc23)n1 | class 0 |
| COCCN1C[C@@H]2[C@@H](OC)CCN(S(=O)(=O)c3cccnc3)[C@@H]2C1.O=C(O)C(F)(F)F.O=C(O)C(F)(F)F | class 0 |
| CS(=O)(=O)c1cnc(N2CCCC2)nc1C1CCN(C(=O)C2CC2)CC1 | class 1 |
| CN(Cc1cccc(F)c1)C(=O)CN1CCCCC1Cn1cncn1 (stereo not given) | class 0 |
| O=C(c1cc(COc2ccc3c(c2)OCO3)[nH]n1)N1CCCC(O)C1 (stereo not given) | class 1 |

* * *

Tested on: Mycobacterium tuberculosis
Run description: Cornell - Phenotypic assay to identify agents that inhibit growth of Mycobacterium tuberculosis
Type: functional
Parameters: scale not given: direction of the effect not stated beside the values
Assay context: 10 mM as filed; unlikely as a test dose
Screen size: about 53,000 compounds; about 900 (1.7%) showed an effect of 50% or more. Shown is part of a subset that was picked to be rich in strong results.
Assay metric: Percent Effect (%)

| Molecule | Experimental system | Assay metric | Endpoint result |
| --- | --- | --- | --- |
| Cc1nccn1C1CCCN(C(=O)c2ccc3c(c2)nc(C)n3C)C1 (stereo unspecified) | Mycobacterium tuberculosis | Percent Effect | -4.275 |
| CCCNC(=O)C(C)n1nc(-c2ccc(C)o2)cc(N)c1=O (stereo unspecified) | Mycobacterium tuberculosis | Percent Effect | 66.1 |
| CCN(CC)C(=O)c1ccc(NC(=O)CNc2ccc(Br)cc2F)cc1 | Mycobacterium tuberculosis | Percent Effect | -14.15 |
| O=C(CCN1CCCO1)N1CC[C@@H](c2ccc3ccccc3c2)[C@H](O)C1 | Mycobacterium tuberculosis | Percent Effect | 5.243 |
| O=C(CCn1cccn1)N1CC[C@@H](c2ccc3ccccc3c2)[C@H](O)C1 | Mycobacterium tuberculosis | Percent Effect | -1.48 |
| Cc1ccc(S(=O)(=O)NC2=NCN(CCc3cccs3)CN2)cc1 | Mycobacterium tuberculosis | Percent Effect | -5.965 |
| CC(C)(C)S(=O)(=O)c1ccc(N2CCC(n3cncn3)CC2)cn1 | Mycobacterium tuberculosis | Percent Effect | -14.59 |
| COCCNC(=O)C(C)n1nc(-c2ccc(C)o2)cc(N)c1=O (stereo unspecified) | Mycobacterium tuberculosis | Percent Effect | -59.92 |
| O=C(CCN1CCCC1)N1CC[C@@H](c2ccc3ccccc3c2)[C@H](O)C1 | Mycobacterium tuberculosis | Percent Effect | 59.79 |
| CCC(c1ccccc1)S(=O)(=O)CCO (stereo unspecified) | Mycobacterium tuberculosis | Percent Effect | -20.37 |
| CCc1cc(NC2CCOCC2)n2nc(C)c(C)c2n1 | Mycobacterium tuberculosis | Percent Effect | 14.02 |

* * *

System: Mycobacterium tuberculosis
Run description: Cornell - Phenotypic assay to identify agents that inhibit growth of Mycobacterium tuberculosis
Format: functional
Set-up: scale not given: direction of the effect not stated beside the values
Assay context: 10 mM as filed; unlikely as a test dose
Screen size: about 53,000 compounds; about 900 (1.7%) showed an effect of 50% or more. The entries come from a sample that favours strong results as a whole.
Assay metric: Percent Effect (%)

| Compound | Units | Endpoint result |
| --- | --- | --- |
| Cc1cc(N(C)CC2COc3ccccc3O2)nc(C)n1 (stereo unspecified) | % | 22.34 |
| CCc1cc(=O)n(CC(=O)N2CCCC2)c(-c2ccc(F)cc2)n1 | % | 28.21 |
| CCN1CC(CN(C)c2cc(C)nc(N)n2)Oc2ccccc21 (stereo unspecified) | % | 100.1 |
| Cc1cc(N(C)CC2COc3ccccc3O2)nc(N)n1 (stereo unspecified) | % | 18.45 |
| COC1CCCN(C2CCN(c3cccc(-c4csc(C)n4)c3)CC2)C1 (stereo unspecified) | % | -0.3551 |
| Cc1nc(-c2cccc(N3CCC(N4CCCC(C#N)C4)CC3)c2)cs1 (stereo unspecified) | % | 11.96 |

* * *

In this section we review reported Percent Effect values for a set of compounds.
Test system: Mycobacterium tuberculosis
Run description: Cornell - Phenotypic assay to identify agents that inhibit growth of Mycobacterium tuberculosis
Format: functional
Set-up: scale not given: direction of the effect not stated beside the values
Assay context: 10 mM as filed; unlikely as a test dose
The campaign covered roughly 53,000 compounds. About 900 (1.7%) showed an effect of 50% or more. Shown is part of a subset that was picked to be rich in strong results.

| Compound | Percent Effect |
| --- | --- |
| c1ccc(CN2CCC(CCNc3ncnc4c3CCNCC4)C2)cc1 (stereo unspecified) | 21.24% |
| Cc1cccc(CNC(=O)NCC2CCN(Cc3ncc[nH]3)C2)c1 (stereo unspecified) | 26.47% |
| CN(C)CCCNCCC(Cc1ccccc1)C1CCOC(C)(C)C1.O=C(O)C(=O)O (stereo unspecified) | 18.5% |
| O=C(CCS(=O)(=O)C1CCCC1)N1CCCC1c1ccsc1 (stereo unspecified) | -6.93% |
| CC(C)(C)c1cc(NC(=O)NCCc2nnc3n2CCC3)c(C#N)s1 | 18.93% |
| COc1cc(C)cc(OC)c1C(C(=O)O)N(C)Cc1c(C)nn(C)c1C (stereo unspecified) | 1.527% |

* * *

Test system: Mycobacterium tuberculosis
Run description: Cornell - Phenotypic assay to identify agents that inhibit growth of Mycobacterium tuberculosis
Assay type: functional
Set-up: scale not given: direction of the effect not stated beside the values
Assay context: 10 mM as filed; unlikely as a test dose
In all, about 53,000 compounds went through this assay and about 900 (1.7%) showed an effect of 50% or more. The full list was thinned out, with strong results kept by preference.

| Compound | Percent Effect [%] |
| --- | --- |
| Cc1ncc(CN(C)C)c(C2CCCN2c2ncccn2)n1 (stereo unspecified) | 3.651 |
| CC(=O)N1CCCC1c1ccc(Br)cn1 (stereo unspecified) | -5.926 |
| OCCc1cc(C2CCCN2c2ncccn2)n[nH]1 (stereo unspecified) | 5.746 |
| Cn1cc(NC(=O)N2CCC(c3ccccc3)CC2)ccc1=O | 23.03 |
| CC(C)C(=O)NCCCNC(=O)Nc1cc(-c2ccccc2)ns1 | 30.68 |
| COc1ccc(Oc2cncc(C3CCCN3C(C)=O)n2)cc1 (stereo unspecified) | -6.062 |

* * *

In this section we review reported Percent Effect values for a set of compounds.
Test system: Mycobacterium tuberculosis
Run description: Cornell - Phenotypic assay to identify agents that inhibit growth of Mycobacterium tuberculosis
Type: functional
Design: scale not given: direction of the effect not stated beside the values
Assay context: 10 mM as filed; unlikely as a test dose
Screen size: about 53,000 compounds; about 900 (1.7%) showed an effect of 50% or more. Shown is part of a subset that was picked to be rich in strong results.
Assay metric: Percent Effect (%)

| Compound | Assay metric | Endpoint result |
| --- | --- | --- |
| CN(Cc1cc2cc(F)ccc2[nH]1)c1cc(C2CCCNC2)ncn1 (stereo unspecified) | Percent Effect | 13.11 |
| Cc1cc(C)c2c(N3CCN(C(=O)N4CCOCC4)CC3)ncnc2n1 | Percent Effect | -18.35 |
| Fc1ccccc1-c1cccc(C2CCCN(C3CCOCC3)C2)n1 (stereo unspecified) | Percent Effect | 36.89 |
| Cn1ccnc1CN1CCCN(C(=O)c2ccc3ccccc3c2)CC1 | Percent Effect | 4.708 |
| COCCNC(=O)c1cccnc1Sc1cc(OC)ccc1OC | Percent Effect | -23.48 |
| CCc1ccccc1NCc1nc2[nH]c(C)c(C)c(=O)n2n1 | Percent Effect | -10.14 |
| CCCN1CCN(C(=O)Nc2ccccc2Cl)[C@H]2CS(=O)(=O)C[C@H]21 | Percent Effect | 2.165 |
| CC(C)=CCCC(C)(O)c1cc(C(N)=O)no1 (stereo unspecified) | Percent Effect | 37.88 |
| CCCN(CCc1ccccn1)C(=O)Cn1cc(C)cn1 | Percent Effect | 6.805 |
| Cc1cc(-c2nccs2)nc(C2CCN(Cc3cccs3)CC2)n1 | Percent Effect | 25.07 |
| CCCNc1ccc(C(=O)NCCc2cccc(Cl)c2)cn1 | Percent Effect | -5.958 |
